- study.system: T1, Human OX40 (Sino Biological Inc) (human, UniProt P43489 29-216, limits assumed)
- T1 construct: Bought soluble protein used as SPR analyte; also called huOX40
- T1 sequence: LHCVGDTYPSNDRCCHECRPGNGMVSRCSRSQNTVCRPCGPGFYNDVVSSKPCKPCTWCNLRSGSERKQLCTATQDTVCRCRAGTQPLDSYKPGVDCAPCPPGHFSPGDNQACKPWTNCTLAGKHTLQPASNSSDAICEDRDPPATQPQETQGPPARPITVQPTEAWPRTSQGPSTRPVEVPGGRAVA
- assay.method.text: SPR (Biacore), antibody captured via anti-human Fc, huOX40 analyte

binder	kon, M⁻¹ s⁻¹
1A7.gr.3 (antibody, V domains shown, human Fc) VH: EVQLVQSGAEVKKPGASVKVSCKASGYTFTDSYMSWVRQAPGQGLEWIGDMYPDNGDSSYNQKFRERVTLTVDTSTSTAYLELSSLRSEDTAVYYCVLAPRWYFSVWGQGTLVTVSS VL: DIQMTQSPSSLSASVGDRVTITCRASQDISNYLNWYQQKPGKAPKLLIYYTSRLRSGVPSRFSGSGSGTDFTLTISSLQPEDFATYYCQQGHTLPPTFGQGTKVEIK	462000
1A7.gr.5′ (antibody, V domains shown, human Fc) VH: EVQLVQSGAEVKKPGASVKVSCKASGYTFTDSYMSWVRQAPGQGLEWIGDMYPDNGDSSYNQKFRERVTLTVDTSTSTAYLELSSLRSEDTAVYYCVLAPRWYFSVWGQGTLVTVSS VL: DIQMTQSPSSLSASVGDRVTITCRASQDISNYLNWYQQKPGKTVKLLIYYTSRLRSGVPSRFSGSGSGTDFTLTISSLQPEDFATYYCQQGHTLPPTFGQGTKVEIK	278000
3C8.gr.7 (antibody, V domains shown, human Fc) VH: EVQLVQSGAEVKKPGASVKVSCKASGYAFTNYLIEWVRQAPGQGLEWIGVINPGSGDTYYSEKFKGRVTLTADTSTSTAYLELSSLRSEDTAVYYCARDRLDYWGQGTLVTVSS VL: DIQMTQSPSSLSASVGDRVTITCHASQDISSYIVWYQQKPGKSFKGLIYHGTNLEDGVPSRFSGSGSGADYTLTISSLQPEDFATYYCVHYAQFPYTFGQGTKVEIK	486000
